Assay: physchem
experimentalEndpoint: pKa

- structureSmiles: "CCCCCCCCC(=O)O"
  experimentalEndpoint: "pKa"
  valueMeasured: 5
